Tested on: OVCAR-8 ovarian
Assay: NCI-60 one-dose screen, 48 h
Conditions: 10 µM unless noted
The panel holds about 83,000 compounds, 20% with a hit somewhere; the sample as a whole holds those more often. Active and inactive are the calls of the source. How the source made its calls: active means growth percent below 10; inactive means the rest.
Outcome codes: active, inactive

- molecule: "CCN(CC)CCCCCCNc1cc(OC)c(Cl)c2cccnc12"
  discrete label: "inactive"
- molecule: "O=C1Nc2ccc(F)cc2C12Nc1cc(Cl)ccc1S2 (stereo not given)"
  discrete label: "inactive"
- molecule: "N=C1C(c2nc(-c3ccc(Br)cc3)cs2)=C(O)CN1CC1CCCO1 (stereo not given)"
  discrete label: "inactive"
- molecule: "Cn1cc(-c2csc(-c3cccc(F)c3)n2)c2cccnc21"
  discrete label: "active"
- molecule: "C=C1C(=O)O[C@H]2[C@H]1CC/C(COC(=O)C(=O)c1c[nH]c3ccccc13)=C\\CC[C@@]1(C)O[C@@H]21"
  discrete label: "active"

The reported measurements were obtained from PubChem BioAssay (NCI).
